These entries and their values trace back to ChEMBL document CHEMBL3351921.

# measured_target: Prostaglandin D2 receptor 2 (Homo sapiens, UniProt Q9Y5Y4)
# Sequence (Q9Y5Y4 whole entry): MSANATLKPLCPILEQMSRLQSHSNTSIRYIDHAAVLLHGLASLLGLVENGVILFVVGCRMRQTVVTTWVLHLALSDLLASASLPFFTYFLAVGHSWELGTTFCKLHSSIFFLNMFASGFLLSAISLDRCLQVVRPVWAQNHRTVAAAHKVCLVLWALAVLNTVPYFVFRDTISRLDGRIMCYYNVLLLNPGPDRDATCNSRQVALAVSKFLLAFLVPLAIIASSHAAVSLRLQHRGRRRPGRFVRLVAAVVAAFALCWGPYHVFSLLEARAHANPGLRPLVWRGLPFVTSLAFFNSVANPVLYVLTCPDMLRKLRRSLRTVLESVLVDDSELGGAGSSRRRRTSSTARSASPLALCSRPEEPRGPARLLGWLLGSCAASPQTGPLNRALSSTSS
# procedure_summary: Antagonist activity at CRTh2 (unknown origin) stably expressed in PGD2-stimulated CHO.K1 cells preincubated for 120 mins by radio-labelled [35S]-GTPgammaS binding assay
# Format: functional, cell-based
Measured IC50, listed per entry.
Include the unit right after the number.

Some solved entries appear below for comparison.
{"item_smiles": "COc1ccc(S(=O)(=O)c2ccc(F)cc2)c(Cc2c3c(n(CC(=O)O)c2C)CCNC3=O)c1", "measured_metric": "IC50", "measurement": "2.4 nM"}
{"item_smiles": "Cc1c(Cc2ccccc2S(=O)(=O)c2ccccc2)c2c(n1CC(=O)O)CC(C)(C)NC2=O", "measured_metric": "IC50", "measurement": "2.9 nM"}

Request: What measured IC50 is associated with "Cc1c(Cc2ccccc2S(=O)(=O)c2ccccc2)c2c(n1CC(=O)O)CCNC2=O" on Prostaglandin D2 receptor 2 (Homo sapiens, UniProt Q9Y5Y4)?
Result: 3 nM

---

# procedure_summary: Lipophilicity, log D of the compound by shake-flask method
# Type: physicochemical
# particulars: octanol/water
measured_metric: logD
Reply briefly: the number, and no unit.

Request: # input compound: "Cc1c(Cc2ccccc2S(=O)(=O)c2ccccc2)c2c(n1CC(=O)O)CCNC2=O" ; wanted: its logD
Result: 0.9

---

# measured_target: Prostaglandin D2 receptor 2 (Homo sapiens)
# procedure_summary: Antagonist activity at CRTh2 (unknown origin) stably expressed in PGD2-stimulated CHO.K1 cells preincubated for 1 hr by radio-labelled [35S]-GTPgammaS binding assay
# Assay type: functional, cell-based
Measured pIC50, listed per entry.
Lab note — pIC50 values are minus log10 of concentrations in M.

{"molecule": "Cc1c(Cc2ccccc2Cn2ccnn2)c2c(n1CC(=O)O)CCNC2=O", "measured_metric": "pIC50", "measurement": 6.10}

Request: What measured pIC50 is associated with "Cc1c(Cc2ccccc2S(=O)(=O)c2ccc(Cl)cc2)c2c(n1CC(=O)O)CCNC2=O" on Prostaglandin D2 receptor 2 (Homo sapiens)?
Result: 8.07

---

# procedure_summary: Aqueous solubility of the compound at pH 1
# Assay type: physicochemical
measured_metric: solubility (µg/mL)
Answer in µg/mL, number only, no unit symbol.

Request: # input compound: "Cc1c(Cc2ccccc2S(=O)(=O)c2ccccc2)c2c(n1CC(=O)O)CCNC2=O" ; wanted: its solubility
Result: 500

---

Measured pKa, listed per entry.
# procedure_summary: Dissociation constant, pKa of the compound by potentiometric method
# Assay type: physicochemical
Reply briefly: the number, and no unit.

Some solved entries appear below for comparison.
{"compound": "Cc1c(Cc2ccccc2S(=O)(=O)c2ccccc2)c2c(n1CC(=O)O)CCN(C)C2=O", "measurement": 2.9}
{"compound": "Cc1c(Cc2ccccc2S(=O)(=O)c2ccccc2)c2c(n1CC(=O)O)CC(C)(C)NC2=O", "measurement": 3}
{"compound": "Cc1c(Cc2ccccc2S(=O)(=O)c2cccc(Cl)c2)c2c(n1CC(=O)O)CCNC2=O", "measurement": 3.1}
{"compound": "COc1ccc(S(=O)(=O)c2ccc(F)cc2)c(Cc2c3c(n(CC(=O)O)c2C)CCNC3=O)c1", "measurement": 3.1}
{"compound": "Cc1c(Cc2ccccc2C(O)c2ccccc2)c2c(n1CC(=O)O)CCNC2=O (stereo not drawn)", "measurement": 3.1}
{"compound": "Cc1c(Cc2ccccc2S(=O)(=O)c2ccccc2)c2c(n1CC(=O)O)CCNC2=O", "measurement": 3}
{"compound": "Cc1c(Cc2ccccc2S(=O)(=O)c2ccccc2)c2c(n1CC(=O)O)CCN(Cc1ccccc1)C2=O", "measurement": 3.3}

Proceed to the following item.
Request: # input compound: "Cc1c(Cc2ccccc2S(=O)(=O)c2ccccc2)c2c(n1CC(=O)O)CCN(C(C)C)C2=O" ; wanted: its pKa
Result: 2.9
